TESTED SYSTEM: EP4 Receptor (Homo sapiens, UniProt P35408)
Sequence (P35408 whole entry): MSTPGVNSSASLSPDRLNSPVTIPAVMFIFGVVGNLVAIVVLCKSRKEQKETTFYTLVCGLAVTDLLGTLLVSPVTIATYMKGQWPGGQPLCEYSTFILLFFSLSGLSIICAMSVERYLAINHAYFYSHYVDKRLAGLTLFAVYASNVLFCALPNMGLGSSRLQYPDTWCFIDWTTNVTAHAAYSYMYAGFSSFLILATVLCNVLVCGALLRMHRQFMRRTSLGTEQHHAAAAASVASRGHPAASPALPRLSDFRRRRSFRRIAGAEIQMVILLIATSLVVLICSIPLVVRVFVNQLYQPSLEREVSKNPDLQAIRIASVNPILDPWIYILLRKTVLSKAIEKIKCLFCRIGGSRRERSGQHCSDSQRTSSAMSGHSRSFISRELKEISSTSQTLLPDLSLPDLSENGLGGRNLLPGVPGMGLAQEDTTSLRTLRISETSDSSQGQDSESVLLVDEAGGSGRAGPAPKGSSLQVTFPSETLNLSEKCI
Cut-off 10 nM on Ki: below means y, at or above means n.

COMPOUND	TESTED SYSTEM	ANSWER LABEL
COCc1cccc(CC(O)/C=C/[C@H]2CC(C)(C)C(=O)N2CCCCCCC(=O)O)c1 (stereo partly drawn) [Compound 59]	EP4 Receptor (Homo sapiens, UniProt P35408)	n

Prompt: # strict comparison: is reported Ki < 10 nM? input = CCCCC[C@H](O)/C=C/[C@H]1CCC(=O)N1CCc1ccc(C(=O)O)cc1 [Compound 76]
Response: y

Prompt: Try this compound next: CC1(C)C[C@H](/C=C/C(O)c2ccc(C(F)(F)F)o2)N(CCCCCCC(=O)O)C1=O (stereo partly drawn) [Compound 55]
Response: y

Prompt: Now the same for CCCCCC(O)/C=C/[C@H]1CCC(=O)N1CCc1ccc(C(=O)O)s1 (stereo partly drawn) [Compound 82]
Response: n

Prompt: What do you get for Cc1cc(Cl)ccc1-c1cccc([C@H](O)CC[C@H]2CCC(=O)N2CCc2ccc(C(=O)O)cc2)c1 [Compound 81] ?
Response: y

---

Target sequence: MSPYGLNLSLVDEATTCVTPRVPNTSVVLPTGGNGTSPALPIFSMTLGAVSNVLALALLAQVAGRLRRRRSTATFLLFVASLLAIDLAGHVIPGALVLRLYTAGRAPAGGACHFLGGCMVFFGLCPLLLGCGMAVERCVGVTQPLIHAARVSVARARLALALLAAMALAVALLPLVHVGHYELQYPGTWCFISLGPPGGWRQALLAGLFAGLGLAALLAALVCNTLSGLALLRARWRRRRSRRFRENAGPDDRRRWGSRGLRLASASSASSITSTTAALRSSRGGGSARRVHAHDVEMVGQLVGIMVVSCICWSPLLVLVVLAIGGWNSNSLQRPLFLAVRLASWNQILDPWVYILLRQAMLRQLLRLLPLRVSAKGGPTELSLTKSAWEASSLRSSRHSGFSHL
MEASUREMENT KIND: Ki

Prompt: I'd like to know its Ki. The molecule in question is CC1(C)C[C@H](/C=C/C(O)c2ccc(C(F)(F)F)o2)N(CCCCCCC(=O)O)C1=O (stereo partly shown)
Response: > 100 µM

---

TESTED SYSTEM: rEP3 Receptor (UniProt P34980)
Sequence (P34980 1-365): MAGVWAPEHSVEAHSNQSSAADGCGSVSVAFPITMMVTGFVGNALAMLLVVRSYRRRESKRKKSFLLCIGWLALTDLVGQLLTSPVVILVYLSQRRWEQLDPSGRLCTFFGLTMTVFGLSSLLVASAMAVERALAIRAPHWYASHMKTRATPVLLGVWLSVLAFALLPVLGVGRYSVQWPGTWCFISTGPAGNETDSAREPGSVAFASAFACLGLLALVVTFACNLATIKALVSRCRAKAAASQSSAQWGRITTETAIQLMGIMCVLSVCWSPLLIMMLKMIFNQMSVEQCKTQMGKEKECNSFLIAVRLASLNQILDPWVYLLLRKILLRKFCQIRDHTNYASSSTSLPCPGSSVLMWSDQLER
Measured Ki, listed per entry for reference.
# value in µM; strip the unit string

COMPOUND	Ki [µM]
O=C(O)CCCCCCN1C(=O)CC[C@@H]1/C=C/C(O)c1cccc(Oc2ccc(Cl)cc2)c1 (some centres unmarked) [Compound 74]	47
Cc1cc(Cl)ccc1-c1cccc([C@H](O)CC[C@H]2CCC(=O)N2CCc2ccc(C(=O)O)cc2)c1 [Compound 81]	54

Next compound, Ki to be filled in.
Prompt: # query: Ki of entry CCCCC[C@H](O)/C=C/[C@H]1CCC(=O)N1CCc1ccc(C(=O)O)cc1 [Compound 76]
Response: 11
